assay: Cell Titer-Glo Cell Viability Assay, genotype 1b cells; assay type: cell-based; conditions: human, Huh-Luc-Neo (HCV genotype 1b replicon) cells, HCV genotype 1b assays, read-out: Cytotoxicity* (CC50)
This section presents compounds with their documented CC50 at 72 h values.

Cc1ccc(O)c(-c2nn(C)cc2C#Cc2ccc(NC(=O)C3CCCCN3C(=O)[C@H](Cc3ccccc3)NC(=O)CC(C)(C)C)cc2)c1 (stereo partly drawn) [Compound 8]	10 to 100 µM

Alright, here's another compound for you.
Input Cc1ccc(O)c(-c2nn(C)cc2C#Cc2ccc(NC(=O)[C@@H]3CCCCN3C(=O)[C@@H](NC(=O)OC(C)(C)C)c3ccccc3)cc2)c1 [Example 17] . Output CC50 at 72 h: > 100 µM

# credit: patent US7923004B2
